// total FIC50 lookup, one value per entry
- System: Mycobacterium tuberculosis Erdman (autoluminescent)
- protocol: total FIC50 (Loewe) at 50% inhibition, three-drug combination (log2); higher = more antagonistic
- condition context: in vitro model: dormancy (butyrate + nitrate, low O2); time point: constant (~7 days, model-specific)

compound	system tested	total FIC50
CC(=O)NC[C@H]1CN(c2ccc(N3CCOCC3)c(F)c2)C(=O)O1 [linezolid] + COc1c(N2C[C@@H]3CCCN[C@@H]3C2)c(F)cc2c(=O)c(C(=O)O)cn(C3CC3)c12 [moxifloxacin] + CO[C@H]1/C=C/O[C@@]2(C)Oc3c(C)c(O)c4c(O)c(c(/C=N/N5CCN(C6CCCC6)CC5)c(O)c4c3C2=O)NC(=O)/C(C)=C\C=C\[C@H](C)[C@H](O)[C@@H](C)[C@@H](O)[C@@H](C)[C@H](OC(C)=O)[C@@H]1C [rifapentine]	Mycobacterium tuberculosis Erdman (autoluminescent)	1.04
CC(=O)NC[C@H]1CN(c2ccc(N3CCOCC3)c(F)c2)C(=O)O1 [linezolid] + NC(=O)c1cnccn1 [pyrazinamide] + CO[C@H]1/C=C/O[C@@]2(C)Oc3c(C)c(O)c4c(O)c(c(/C=N/N5CCN(C6CCCC6)CC5)c(O)c4c3C2=O)NC(=O)/C(C)=C\C=C\[C@H](C)[C@H](O)[C@@H](C)[C@@H](O)[C@@H](C)[C@H](OC(C)=O)[C@@H]1C [rifapentine]	Mycobacterium tuberculosis Erdman (autoluminescent)	0.405
CC[C@@H](CO)NCCN[C@@H](CC)CO [ethambutol] + NNC(=O)c1ccncc1 [isoniazid] + CO[C@H]1/C=C/O[C@@]2(C)Oc3c(C)c(O)c4c(O)c(c(/C=N/N5CCN(C)CC5)c(O)c4c3C2=O)NC(=O)/C(C)=C\C=C\[C@H](C)[C@H](O)[C@@H](C)[C@@H](O)[C@@H](C)[C@H](OC(C)=O)[C@@H]1C [rifampicin]	Mycobacterium tuberculosis Erdman (autoluminescent)	-0.262

From: the supplement of paper PMC8617591
